Ref: patent US12319655B2

target-of-assay: A-Raf kinase (SEQ. ID No: 1) (Homo sapiens (Human), UniProt P10398, Y301D/Y302D)
Sequence (P10398 other isoform, or with tags, fused parts or gaps Y301D (already in the parent)/Y302D (already in the parent)): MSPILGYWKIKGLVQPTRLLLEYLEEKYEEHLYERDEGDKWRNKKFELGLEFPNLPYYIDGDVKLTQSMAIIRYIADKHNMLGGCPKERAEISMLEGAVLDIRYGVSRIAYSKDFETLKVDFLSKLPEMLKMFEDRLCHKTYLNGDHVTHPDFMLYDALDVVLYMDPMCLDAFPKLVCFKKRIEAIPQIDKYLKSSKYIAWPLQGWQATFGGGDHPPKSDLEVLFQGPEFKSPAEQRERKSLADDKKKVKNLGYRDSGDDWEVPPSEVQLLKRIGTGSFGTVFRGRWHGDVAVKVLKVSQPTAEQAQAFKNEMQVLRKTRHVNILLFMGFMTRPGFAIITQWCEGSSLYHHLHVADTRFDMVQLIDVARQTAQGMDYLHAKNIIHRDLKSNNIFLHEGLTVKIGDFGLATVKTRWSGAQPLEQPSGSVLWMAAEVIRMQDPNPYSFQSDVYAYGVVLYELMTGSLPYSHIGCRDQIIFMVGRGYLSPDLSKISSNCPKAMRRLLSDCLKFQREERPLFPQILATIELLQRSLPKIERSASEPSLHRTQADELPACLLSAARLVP
method: Biochemical Assay for A-Raf (1)
applied-conditions: Table J, assay version (1); read-out: ARAF (1) IC50
observation-type: IC50

Example entries and their recorded answers appear below.
smiles-code | target-of-assay | IC50
Cc1ccc(NC(=O)c2ccnc(C3(C#N)CC3)c2)cc1-c1nccc(-c2ccnc(NC(=O)C3CC3)c2)n1 | A-Raf kinase (SEQ. ID No: 1) (Homo sapiens (Human), UniProt P10398, Y301D/Y302D) | 100 to 500 nM
Cc1ccc(NC(=O)c2ccnc(C3(C#N)CC3)c2)cc1-c1ccnc(-c2ccnc(NC(=O)C3CC3)c2)n1 | A-Raf kinase (SEQ. ID No: 1) (Homo sapiens (Human), UniProt P10398, Y301D/Y302D) | 100 to 500 nM

Give me IC50 for each of these molecules, listed below.
1. COCCNC(=O)c1cc(-c2cnnc(-c3cc(NC(=O)c4cccc(C5CC5)c4)ccc3C)c2)ccn1
2. Cc1ncc(NC(=O)c2ccnc(C(C)(C)C#N)c2)cc1-c1cccc(-c2cc(NC(=O)C3CC3)ncn2)n1

1. 1000 to 10000 nM
2. 1000 to 10000 nM

###

For each of the molecules below, state its IC50.
Test system: WM3928 cells
method: WM3928 Cell Proliferation Assay (1)
Type: cell-based

Give me IC50 for each of these molecules, listed below.
1. Cc1ccc(NC(=O)c2ccnc(C(C)(C)C#N)c2)cc1-c1ccnc(-c2ccnc3c2CC(=O)N3)c1 [Example 23]
2. CNC(=O)c1cc(-c2ccnc(-c3cc(NC(=O)c4ccnc(C(C)(C)C#N)c4)ccc3C)n2)ccn1 [Example 177]

["≤ 100 nM", "≤ 100 nM"]

Give me IC50 for each of these molecules, listed below.
1. COC(=O)Nc1cc(-c2cncc(-c3cc(NC(=O)c4ccnc(C(C)(C)C#N)c4)ccc3C)c2)ncn1 [Example 414]
2. CNC(=O)c1cc(-c2cncc(-c3cc(NC(=O)c4ccnc(C(C)(C)F)c4)c(F)cc3C)c2)ccn1 [Example 408]

1. ≤ 100 nM
2. 100 to 500 nM

###

System: Miapaca-2 cells
method: MiaPaca-2 Combination Cell proliferation Assay (1) with cobimetinib
Format: cell-based
applied-conditions: MiaPaca-2 cell proliferation, read-out: MiaPaca-2 Combo (1) IC50
Procedure: MiaPaca-2 Combination Cell proliferation Assay (1) Miapaca-2 cells (catalog #CRL-1420) are obtained from the American Type Culture Collect (ATCC, Manassas, VA). […] Plates are read on a Synergy2 or equivalent reader (Biotek, Winooski VT) using an excitation of 540 nm and an emission of 600 nm. Drug synergy was assessed via BLISS analysis in the Combenefit software (Cancer Research UK Cambridge Institute, Cambridge, UK). […]
pIC50: −log10 of the molar value.
observation-type: pIC50

smiles-code | pIC50
COC(=O)Nc1cc(-c2cc(-c3cc(NC(=O)c4ccnc(C(C)(C)C#N)c4)cnc3C)ccn2)ccn1 | ≥ 7.00

Give me pIC50 for each of these compounds, listed below.
1. Cc1ccc(NC(=O)c2ccnc(C(C)(C)C#N)c2)cc1-c1cncc(-c2ccnc3c2CC(=O)N3)n1
2. CC(=O)Nc1cc(-c2nccc(-c3cc(NC(=O)c4ccnc(C(C)(C)C#N)c4)ccc3C)n2)ccn1
3. CC(=O)Nc1cc(-c2cc(-c3cc(NC(=O)c4ccnc(C(F)(F)F)c4)ccc3C)nc(N(C)C)n2)ccn1
4. Cc1ccc(NC(=O)c2ccnc(C(C)(C)C#N)c2)cc1-c1cncc(-c2ccnc(NC(=O)C3CC3)c2)n1
5. Cc1ccc(NC(=O)c2ccnc(C(F)(F)F)c2)cc1-c1cccc(-c2cc(NC(=O)C3CC3)ncn2)c1

1. 6.30 to 7.00
2. ≥ 7.00
3. ≥ 7.00
4. ≥ 7.00
5. ≥ 7.00

Give me pIC50 for each of these compounds, listed below.
1. Cc1ncc(NC(=O)c2ccnc(C(C)(C)C#N)c2)cc1-c1ccnc(-c2ccnc(NC(=O)C3CC3)c2)c1
2. Cc1cc(F)c(NC(=O)c2ccnc(C(C)(C)C#N)c2)cc1-c1ccnc(-c2ccnc(NC=O)c2)c1
3. CC(=O)Nc1cc(-c2cc(-c3cc(NC(=O)c4ccnc(C(F)(F)F)c4)c(F)cc3C)cc(C)n2)ccn1
4. COC(C)(C)c1cc(C(=O)Nc2cnc(C)c(-c3cccc(-c4cc(NC(=O)C5CC5)ncn4)c3)c2)ccn1

["≥ 7.00", "≥ 7.00", "≥ 7.00", "≥ 7.00"]

Give me pIC50 for each of these compounds, listed below.
1. Cc1ccc(NC(=O)c2ccnc(C(C)(C)F)c2)cc1-c1cncc(-c2cc(NC(=O)C3CC3)ncn2)c1
2. CC(=O)Nc1cc(-c2cc(-c3cc(C(=O)Nc4ccnc(C(F)(F)F)c4)ccc3C)ccn2)ccn1

["5.00 to 6.00", "≥ 7.00"]

Give me pIC50 for each of these compounds, listed below.
1. COC(=O)Nc1cc(-c2cccc(-c3cc(NC(=O)c4ccnc(C(C)(C)C#N)c4)cnc3C)c2)ncn1
2. CNC(=O)c1cc(-c2nccc(-c3cc(NC(=O)c4ccnc(C5(C#N)CC5)c4)ccc3C)n2)ccn1
3. COC(=O)Nc1cc(-c2cc(-c3cc(NC(=O)c4ccnc(C(C)(C)C#N)c4)c(F)cc3C)ccn2)ccn1

≥ 7.00
≥ 7.00
≥ 7.00

###

For each of the molecules below, state its pIC50.
target-of-assay: A-Raf kinase (SEQ. ID No: 1) (Homo sapiens (Human), UniProt P10398, Y301D/Y302D)
method: Biochemical Assay for A-Raf (1)
applied-conditions: Table J, assay version (1); read-out: ARAF (1) IC50
pIC50: −log10 of the molar value.

Example entries and their recorded answers appear below.
smiles-code | pIC50
CC(=O)Nc1cc(-c2cncc(-c3cc(NC(=O)c4cc(C(F)(F)F)ccn4)ccc3C)n2)ccn1 | 5.00 to 6.00
CNC(=O)c1cc(-c2nccc(-c3cc(NC(=O)c4ccnc(C(C)(C)C#N)c4)c(F)cc3C)n2)ccn1 | 5.00 to 6.00
CC(=O)Nc1cc(-c2nccc(-c3cc(NC(=O)c4cnnc(C5CC5)c4)ccc3C)n2)ccn1 | 5.00 to 6.00
Cc1ccc(NC(=O)c2ccnc(C(C)(C)F)c2)cc1-c1ccnc(-c2ccnc(NC(=O)C3CC3)c2)n1 | 6.00 to 6.30
Cc1ncc(NC(=O)c2cnnc(C3CC3)c2)cc1-c1nccc(-c2ccnc(NC(=O)C3CC3)c2)n1 | 5.00 to 6.00
CC(=O)Nc1cc(-c2cc(-c3cc(NC(=O)c4ccnc(C(C)(C)C#N)c4)c(F)cc3C)ccn2)ccn1 | 5.00 to 6.00

Turning to the following molecule.
// lookup pIC50 for CC(=O)Nc1cc(-c2nccc(-c3cc(NC(=O)c4ccnc(C(F)(F)F)c4)cnc3C)n2)ccn1
5.00 to 6.00

###

target-of-assay: A-Raf kinase (SEQ. ID No: 1) (Homo sapiens (Human), UniProt P10398, Y301D/Y302D)
method: Biochemical Assay for A-Raf (1)
applied-conditions: Table J, biochemical assay (1); read-out: ARAF (1)
pIC50: −log10 of the molar value.
observation-type: pIC50

Example entries and their recorded answers appear below.
smiles-code | pIC50
CNC(=O)c1cc(-c2cncc(-c3cc(NC(=O)Cn4cc(C(C)C)nn4)ccc3C)c2)ncn1 | 5.00 to 6.00
COC(=O)Nc1cc(-c2cnnc(-c3cc(NC(=O)c4ccnc(C(C)(C)F)c4)ccc3C)c2)ccn1 | 5.00 to 6.00
COC(=O)Nc1cc(-c2cccc(-c3cc(NC(=O)Cn4cc(C(C)C)nn4)cnc3C)c2)ccn1 | 5.00 to 6.00
Cc1ncc(NC(=O)c2ccnc(C(C)(C)C#N)c2)cc1-c1cncc(-c2cc(NC(=O)C3CC3)ncn2)c1 | 5.00 to 6.00
Cc1ccc(NC(=O)c2ccnc(C(C)(C)C#N)c2)cc1-c1cncc(-c2cc(NC(=O)C(C)C)ncn2)c1 | 5.00 to 6.00
COC(=O)Nc1cc(-c2cncc(-c3cc(NC(=O)c4ccnc(C(C)(C)C#N)c4)ccc3C)c2)ncn1 | 5.00 to 6.00
Cc1ccc(NC(=O)c2cnn(C3CC3)c2)cc1-c1cncc(-c2cc(NC(=O)C3CC3)ncn2)c1 | 6.00 to 6.30
CNC(=O)c1cc(-c2cncc(-c3cc(NC(=O)c4ccnc(C(C)(C)F)c4)ccc3C)c2)ccn1 | 5.00 to 6.00

Give me pIC50 for each of these molecules, listed below.
1. COC(=O)Nc1cc(-c2cccc(-c3cc(NC(=O)c4ccnc(C(C)(C)F)c4)cnc3C)c2)ccn1
2. Cc1ccc(NC(=O)c2cn(C(C)C)nn2)cc1-c1cncc(-c2cc(NC(=O)C3CC3)ncn2)c1

1. 5.00 to 6.00
2. 6.30 to 7.00

Give me pIC50 for each of these molecules, listed below.
1. Cc1ccc(NC(=O)c2cc(C3CC3)n(C)n2)cc1-c1cc(-c2ccnc(NC(=O)C3CC3)c2)cnn1
2. CNC(=O)c1cc(-c2ccnc(-c3cc(NC(=O)c4ccnc(C(C)(C)F)c4)ccc3C)c2)ccn1
3. COc1ccc(NC(=O)c2ccnc(C(C)(C)C#N)c2)cc1-c1cccc(-c2cc(NC(=O)C3CC3)ncn2)c1

1: 5.00 to 6.00; 2: 5.00 to 6.00; 3: 5.00 to 6.00

Give me pIC50 for each of these molecules, listed below.
1. Cc1ccc(NC(=O)c2ccnc(C(C)(C)F)c2)cc1-c1cncc(-c2ccnc3c2CC(=O)N3)c1
2. Cc1ccc(NC(=O)c2ccnc(C(C)(C)F)c2)cc1-c1cncc(-c2cc(NC(=O)C3CC3)ncn2)c1

1: 5.00 to 6.00; 2: 6.30 to 7.00
